Data credit: ChEMBL document CHEMBL1938315

- System under test: Transient receptor potential cation channel subfamily A member 1 (Homo sapiens, UniProt O75762)
- Sequence (O75762 whole entry): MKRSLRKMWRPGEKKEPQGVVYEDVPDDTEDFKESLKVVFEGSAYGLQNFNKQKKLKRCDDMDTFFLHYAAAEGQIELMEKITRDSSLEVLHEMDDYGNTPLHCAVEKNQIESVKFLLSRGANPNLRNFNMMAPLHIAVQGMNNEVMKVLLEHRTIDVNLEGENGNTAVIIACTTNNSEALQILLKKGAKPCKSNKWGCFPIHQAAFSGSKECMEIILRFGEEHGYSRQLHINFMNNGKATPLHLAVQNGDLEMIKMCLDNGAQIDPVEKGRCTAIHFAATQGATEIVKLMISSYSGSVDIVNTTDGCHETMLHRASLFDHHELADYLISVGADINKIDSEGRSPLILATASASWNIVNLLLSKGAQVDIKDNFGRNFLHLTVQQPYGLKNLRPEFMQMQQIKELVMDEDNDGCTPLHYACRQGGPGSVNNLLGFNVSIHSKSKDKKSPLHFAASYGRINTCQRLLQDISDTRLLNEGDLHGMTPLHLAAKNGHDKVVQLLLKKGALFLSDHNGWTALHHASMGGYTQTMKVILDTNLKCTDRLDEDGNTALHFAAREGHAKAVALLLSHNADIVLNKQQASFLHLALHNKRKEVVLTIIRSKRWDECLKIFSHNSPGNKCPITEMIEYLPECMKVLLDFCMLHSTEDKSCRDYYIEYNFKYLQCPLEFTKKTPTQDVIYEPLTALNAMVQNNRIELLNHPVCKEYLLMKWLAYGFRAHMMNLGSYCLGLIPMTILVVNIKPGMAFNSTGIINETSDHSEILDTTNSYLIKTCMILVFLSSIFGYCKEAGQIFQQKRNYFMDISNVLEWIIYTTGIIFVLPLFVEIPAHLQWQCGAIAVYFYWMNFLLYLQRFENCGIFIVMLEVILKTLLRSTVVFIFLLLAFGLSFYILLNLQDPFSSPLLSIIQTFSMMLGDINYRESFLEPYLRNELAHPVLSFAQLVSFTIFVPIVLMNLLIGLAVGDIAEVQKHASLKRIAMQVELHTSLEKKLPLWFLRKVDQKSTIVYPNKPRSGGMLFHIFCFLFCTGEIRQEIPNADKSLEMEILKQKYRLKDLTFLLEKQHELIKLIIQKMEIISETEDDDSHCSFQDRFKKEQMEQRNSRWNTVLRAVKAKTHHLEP
- Protocol notes: Antagonist activity at human TRPA1 expressed in HEK293 cells assessed as inhibition of 5H-dibenzo[b,e]azepine-10-carboxylic acid methyl ester-induced increase in intracellular calcium by Fluo4-AM based fluorometric assay
pIC50: −log10 of the molar value.
# if value of pIC50 reaches 6, tag label 1; if it stays below, tag label 0

Some entries whose results are on file:
Compound: O=C1C2=C(NC(=S)NC2c2ccccc2F)c2ccccc21 (stereo not drawn)
Assigned category: label 0
--
Compound: CN(C)CCCOc1cccc(C2NC(=S)NC3=C2C(=O)c2ccccc23)c1 (stereo not drawn)
Assigned category: label 0
--
Compound: CCOC(=O)C1=C(c2ccccc2)NC(=S)NC1c1cccc(OC)c1 (stereo not drawn)
Assigned category: label 0

Given the entry O=C1C2=C(NC(=S)NC2c2ccccc2)c2ccccc21 (racemic) , answer whether its pIC50 meets or surpasses 6.
label 0

Given the entry S=C(NCc1ccccc1)NCc1ccccc1 , answer whether its pIC50 meets or surpasses 6.
label 0

Given the entry COc1cccc([C@H]2NC(=S)NC3=C2C(=O)c2ccccc23)c1 , answer whether its pIC50 meets or surpasses 6.
label 1

Given the entry COCCCOc1cccc(C2NC(=S)NC3=C2C(=O)c2ccccc23)c1 (racemic) , answer whether its pIC50 meets or surpasses 6.
label 1
